Experiment: Drug level in Sprague-Dawley rat blood at 2 mg/kg, iv after 0.083 hrs
Type: ADME, organism-based
Design: dose 2 mg/kg, route intravenous
Conditions: read-out: Drug uptake
ENDPOINT LABEL: concentration at 0.083 h (ng/mL)
Numbers only, in ng/mL.

Q: Indicate the recorded concentration at 0.083 h value for this compound: `CC(=O)O[C@@H](C[C@@H](C)C1=C2C[C@H](OC(C)=O)[C@H]3[C@@]4(C)CCC(=O)C(C)(C)[C@@H]4CC[C@]3(C)[C@@]2(C)CC1)[C@@H](OC(C)=O)C(C)(C)OC(C)=O`
A: 567

---

Provide the recorded CC50 for the entries that follow.
Assay: Cytotoxicity against human HepG2(2.2.15) cells
Type: cell-based

Here are 4 molecules together with their reported answers.
>>> test_value("CC(=O)O[C@@H](C[C@@H](C)C1=C2C[C@H](OC(C)=O)[C@H]3[C@@]4(C)CCC(=O)C(C)(C)[C@@H]4CC[C@]3(C)[C@@]2(C)CC1)[C@@H](OC(C)=O)C(C)(C)OC(C)=O")
"> 1600 µM"
>>> test_value("C[C@H](C[C@H](OC(=O)C1CC1)[C@@H](OC(=O)C1CC1)C(C)(C)OC(=O)C1CC1)C1=C2C[C@H](OC(=O)C3CC3)[C@H]3[C@@]4(C)CCC(=O)C(C)(C)[C@@H]4CC[C@]3(C)[C@@]2(C)CC1")
"> 2100 µM"
>>> test_value("CCC(=O)O[C@@H](C[C@@H](C)[C@]12CC[C@@]3(C)[C@@]1(C[C@H](OC(=O)CC)[C@H]1[C@@]4(C)CCC(=O)C(C)(C)[C@@H]4CC[C@@]13C)O2)[C@@H](OC(=O)CC)C(C)(C)OC(=O)CC")
"> 2200 µM"
>>> test_value("C[C@H](C[C@H](OC(=O)c1ccccc1)[C@@H](OC(=O)c1ccccc1)C(C)(C)OC(=O)c1ccccc1)C1=C2C[C@H](OC(=O)c3ccccc3)[C@H]3[C@@]4(C)CCC(=O)C(C)(C)[C@@H]4CC[C@]3(C)[C@@]2(C)CC1")
"> 1400 µM"

Shift focus to the following entry.
Q: Indicate the recorded CC50 value for this molecule: `CC(=O)OC1=CC[C@@]2(C)[C@@H](CC[C@@]3(C)[C@H]2[C@@H](OC(C)=O)CC2=C([C@H](C)C[C@H](OC(C)=O)[C@@H](OC(C)=O)C(C)(C)OC(C)=O)CC[C@@]23C)C1(C)C`
A: > 2100 µM

---

Test: Drug level in Sprague-Dawley rat blood at 2 mg/kg, iv after 24 hrs
Format: ADME, organism-based
Design: dose 2 mg/kg, route intravenous
Conditions: read-out: Drug uptake
ENDPOINT LABEL: concentration at 24 h (ng/mL)
One number for each entry, in ng/mL.

Q: Indicate the recorded concentration at 24 h value for this molecule: `CC(=O)O[C@@H](C[C@@H](C)C1=C2C[C@H](OC(C)=O)[C@H]3[C@@]4(C)CCC(=O)C(C)(C)[C@@H]4CC[C@]3(C)[C@@]2(C)CC1)[C@@H](OC(C)=O)C(C)(C)OC(C)=O`
A: 2.19

---

System: Hepatitis B virus
Assay: Antiviral activity against HBV assessed as inhibition of viral surface antigen secretion
Type: functional, organism-based
ENDPOINT LABEL: IC50

Here are 5 compounds together with their reported answers.
>>> test_value("C[C@H](C[C@H](OC(=O)CN1C(=O)c2ccccc2C1=O)[C@@H](OC(=O)CN1C(=O)c2ccccc2C1=O)C(C)(C)OC(=O)CN1C(=O)c2ccccc2C1=O)C1=C2C[C@H](OC(=O)CN3C(=O)c4ccccc4C3=O)[C@H]3[C@@]4(C)CCC(=O)C(C)(C)[C@@H]4CC[C@]3(C)[C@@]2(C)CC1")
"> 1300 µM"
>>> test_value("C[C@H](C[C@H](OC(=O)COc1ccccc1)[C@@H](OC(=O)COc1ccccc1)C(C)(C)OC(=O)COc1ccccc1)C1=C2C[C@H](OC(=O)COc3ccccc3)[C@H]3[C@@]4(C)CCC(=O)C(C)(C)[C@@H]4CC[C@]3(C)[C@@]2(C)CC1")
"> 1400 µM"
>>> test_value("C[C@H](C[C@H](O[Si](C)(C)C)[C@@H](O[Si](C)(C)C)C(C)(C)O[Si](C)(C)C)C1=C2C[C@H](O[Si](C)(C)C)[C@H]3[C@@]4(C)CCC(=O)C(C)(C)[C@@H]4CC[C@]3(C)[C@@]2(C)CC1")
"20 µM"
>>> test_value("CCOCC(=O)OC(C)(C)[C@H](OC(C)=O)[C@H](C[C@@H](C)C1=C2C[C@H](OC(C)=O)[C@H]3[C@@]4(C)CCC(=O)C(C)(C)[C@@H]4CC[C@]3(C)[C@@]2(C)CC1)OC(C)=O")
"14 µM"
>>> test_value("C[C@H](C[C@H](OC(=O)c1ccccc1)[C@@H](OC(=O)c1ccccc1)C(C)(C)OC(=O)c1ccccc1)[C@]12CC[C@@]3(C)[C@@]1(C[C@H](OC(=O)c1ccccc1)[C@H]1[C@@]4(C)CCC(=O)C(C)(C)[C@@H]4CC[C@@]13C)O2")
"> 1700 µM"

Your task in this section: give IC50 for each listed record.
1. C[C@H](C[C@H](OC(=O)c1ccc(Cl)cc1Cl)[C@@H](OC(=O)c1ccc(Cl)cc1Cl)C(C)(C)OC(=O)c1ccc(Cl)cc1Cl)C1=C2C[C@H](OC(=O)c3ccc(Cl)cc3Cl)[C@H]3[C@@]4(C)CCC(=O)C(C)(C)[C@@H]4CC[C@]3(C)[C@@]2(C)CC1
2. CCC(=O)O[C@@H](C[C@@H](C)C1=C2C[C@H](OC(=O)CC)[C@H]3[C@@]4(C)CCC(=O)C(C)(C)[C@@H]4CC[C@]3(C)[C@@]2(C)CC1)[C@@H](OC(=O)CC)C(C)(C)OC(=O)CC
3. C[C@H](C[C@H](OC(=O)[C@H]1CCC(=O)O1)[C@@H](OC(=O)[C@H]1CCC(=O)O1)C(C)(C)OC(=O)[C@@H]1CCC(=O)O1)C1=C2C[C@H](OC(=O)[C@@H]3CCC(=O)O3)[C@H]3[C@@]4(C)CCC(=O)C(C)(C)[C@@H]4CC[C@]3(C)[C@@]2(C)CC1

A:
1. > 1000 µM
2. 900 µM
3. > 1600 µM

Where these numbers come from: ChEMBL document CHEMBL1154649
